Each entry below carries its reported EC50 Rat APJ Receptor.
Biological target: T1, rat APJ receptor (rat, UniProt Q9JHG3 1-377)
T1 sequence (looked up): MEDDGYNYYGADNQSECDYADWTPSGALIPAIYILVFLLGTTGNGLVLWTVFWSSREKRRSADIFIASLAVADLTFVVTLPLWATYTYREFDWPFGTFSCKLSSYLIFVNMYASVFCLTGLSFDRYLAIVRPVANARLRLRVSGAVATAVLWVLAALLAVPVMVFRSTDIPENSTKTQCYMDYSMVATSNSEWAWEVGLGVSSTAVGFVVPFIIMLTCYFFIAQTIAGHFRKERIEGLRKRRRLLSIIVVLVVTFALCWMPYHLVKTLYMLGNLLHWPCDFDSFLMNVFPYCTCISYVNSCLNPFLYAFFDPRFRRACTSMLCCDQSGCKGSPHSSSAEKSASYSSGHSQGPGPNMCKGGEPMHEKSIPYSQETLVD
Test: cell-based or functional assay
Starred links: 1 amine or outer side, 2 acyl side, 3 side chain; linkers in the order of their positions; H or OH if unused. Non-standard residues stand in square brackets, D forms with d. Primed or numbered codes have the meaning given here. No end group written: not given here. *: point of attachment. Propanoyl(3-triazol-4-yl) = O=C(CCc1cn([*:1])nn1)[*:2]; dBip = N[C@H](Cc1ccc(-c2ccccc2)cc1)C(=O)O; Oic = O=C(O)[C@@H]1C[C@@H]2CCCC[C@@H]2N1; Phe(4-Cl) = N[C@@H](Cc1ccc(Cl)cc1)C(=O)O; dPhe(4-Cl) = N[C@H](Cc1ccc(Cl)cc1)C(=O)O; Phe(4-I) = N[C@@H](Cc1ccc(I)cc1)C(=O)O; γGlu = O=C(O)[C@H](CCC(=O)[*:2])N[*:1]; NMeR = CN[C@@H](CCCNC(=N)N)C(=O)O; Tridecanoyl = CCCCCCCCCCCCC(=O)*; hArg = N=C(N)NCCCC[C@H](N)C(=O)O; Cha = N[C@@H](CC1CCCCC1)C(=O)O; NMeL = CN[C@@H](CC(C)C)C(=O)O; αMeS = C[C@](N)(CO)C(=O)O; Nle = CCCC[C@H](N)C(=O)O; Orn = NCCC[C@H](N)C(=O)O; Pip′ = not defined here; AEEA = NCCOCCOCC(=O)O; BLeu = β-leucine; βAla = NCCC(=O)O
measured.property: EC50 Rat APJ Receptor (nM)

- binder: "[Orn]F[hArg][hArg]Q[hArg]P[hArg][Cha]SHKG[Oic][Nle][Pip′][Phe(4-Cl)] [apelin polypeptide SEQ ID NO: 711]"
  measured.property: "EC50 Rat APJ Receptor"
  result.units: "nM"
  numeric.readout: 0.351
- binder: "[Orn]F[hArg][hArg]Q[hArg]P[hArg][Cha]SHKG[βAla][Nle]P[Phe(4-Cl)] [apelin polypeptide SEQ ID NO: 705]"
  measured.property: "EC50 Rat APJ Receptor"
  result.units: "nM"
  numeric.readout: 11.1
- binder: "{20K‑mPEGReg-Propanoyl(3-triazol-4-yl)}-[hArg]RQ[hArg]PR[NMeL]SHKG[Oic][Phe(4-I)]P[dBip]-OH (also: 20 kDa PEG conjugate) [apelin polypeptide SEQ ID NO: 104]"
  measured.property: "EC50 Rat APJ Receptor"
  result.units: "nM"
  numeric.readout: 45
- binder: "Tridecanoyl-[γGlu][AEEA][AEEA][dQ][hArg]P[NMeR][BLeu]SHKG[Oic][Nle]P[Phe(4-Cl)]-OH [apelin polypeptide SEQ ID NO: 275]"
  measured.property: "EC50 Rat APJ Receptor"
  result.units: "nM"
  numeric.readout: 19.3
- binder: "Ac-[dR][hArg]Q[hArg]P[dR][NMeL]SHKG[Oic][Phe(4-I)]P[dBip]-OH [apelin polypeptide SEQ ID NO: 18]"
  measured.property: "EC50 Rat APJ Receptor"
  result.units: "nM"
  numeric.readout: 0.523
- binder: "Ac-[hArg]Q[dR]P[NMeR][Cha]SHKG[Oic][Nle]P[dPhe(4-Cl)]-OH [apelin polypeptide SEQ ID NO: 24]"
  measured.property: "EC50 Rat APJ Receptor"
  result.units: "nM"
  numeric.readout: 134
- binder: "Ac-[Orn]F[hArg][hArg]Q[hArg]P[hArg][Cha][αMeS]HKG[Oic][Nle]P[Phe(4-Cl)]-OH [apelin polypeptide SEQ ID NO: 35]"
  measured.property: "EC50 Rat APJ Receptor"
  result.units: "nM"
  numeric.readout: 0.185
- binder: "KFRRQRP[hArg][Cha]SHKG[Oic][Nle]P[Phe(4-Cl)]-OH (not fully specified (N-terminus); printed as [MerPr](20K mPEGacetamide)KFRRQRP[hArg][Cha]SHKG[Oic][Nle]P[4-Cl-F]{COOH}; also: 20K mPEG acetamide conjugate on MerPr) [apelin polypeptide SEQ ID NO: 97]"
  measured.property: "EC50 Rat APJ Receptor"
  result.units: "nM"
  numeric.readout: 0.253
- binder: "Tridecanoyl-[γGlu][AEEA][AEEA][dQ][hArg]P[dR][BLeu]SHKG[Oic][Nle]P[Phe(4-Cl)]-OH [apelin polypeptide SEQ ID NO: 274]"
  measured.property: "EC50 Rat APJ Receptor"
  result.units: "nM"
  numeric.readout: 46.2
